# measurement-target: T1, Human ANGPTL4(26-406)-FLAG-His6-Avi (human, UniProt Q9BY76 24-406, biotin on the C-terminal Avi tag in the biotinylated preparations (immobilised form in SET, ELISA and Octet))
# T1 construct: also called full-length human ANGPTL4; hANGPTL4
# T1 sequence: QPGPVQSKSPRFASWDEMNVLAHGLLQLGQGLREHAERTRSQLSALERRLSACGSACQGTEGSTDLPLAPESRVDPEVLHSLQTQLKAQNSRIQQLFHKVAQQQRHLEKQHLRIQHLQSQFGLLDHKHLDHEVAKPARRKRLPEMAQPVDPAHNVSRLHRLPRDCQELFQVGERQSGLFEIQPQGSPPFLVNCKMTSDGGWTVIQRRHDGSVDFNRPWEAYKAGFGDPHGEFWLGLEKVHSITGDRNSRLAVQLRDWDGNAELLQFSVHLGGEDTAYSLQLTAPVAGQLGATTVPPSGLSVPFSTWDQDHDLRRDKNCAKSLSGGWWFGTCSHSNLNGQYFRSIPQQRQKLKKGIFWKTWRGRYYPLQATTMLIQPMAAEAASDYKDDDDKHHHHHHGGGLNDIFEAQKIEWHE
# experiment: ForteBio Octet, biotinylated antigen on streptavidin sensor, antibody in solution
attribute-measured: koff (s⁻¹)
Express the result in s⁻¹ but write the number alone.

Below, each entry is followed by its recorded koff result.
- MOR021800 (antibody, human IgG1, lambda, V domains shown, human IgG1) VH: QVQLVQSGAEVKKPGESLKISCKGSGYSFSTYWISWVRQMPGKGLEWMGIIDPSNSDTRYSPSFQGQVTISADKSISTAYLQWSSLKASDTAMYYCARVYGYVYMDVWGQGTLVTVSS VL: DIELTQPPSVSVSPGQTASITCSGDNLGKKYAYWYQQKPGQAPVLVIYDKTKRPSGIPERFSGSNSGNTATLTISGTQAEDEADYYCASYDWYSSSYVFGGGTKLTVLG: 5.6e-05
- MOR021830 (antibody, human IgG1, kappa, V domains shown, human IgG1) VH: QVQLLESGGGLVQPGGSLRLSCAASGFTFSSYWMHWVRQAPGKGLEWVSGISYDGSSTNYADSVKGRFTISRDNSKNTLYLQMNSLRAEDTAVYYCARDSYIYDLHWGFDNWGQGTLVTVSS VL: DIQMTQSPSSLSASVGDRVTITCRASQDISSYLNWYQQKPGKAPKLLIYAASRLQSGVPSRFSGSGSGTDFTLTISSLQPEDFATYYCQQSYTHPYTFGQGTKVEIKR: 1.5e-05

Consider the additional binder presented here.
Field request: koff | item: MOR021792 (antibody, human IgG1, lambda, V domains shown) VH: QVQLLESGGGLVQPGGSLRLSCAASGFTFSDYAMDWVRQAPGKGLEWVSKISYDGSYTYYADSVKGRFTISRDNSKNTLYLQMNSLRAEDTAVYYCARPSMSYYIIPAGFDVWGQGTLVTVSS VL: DIELTQPPSVSVSPGQTASITCSGDALGVKRASWYQQKPGQAPVLVIYKDNNRPSGIPERFSGSNSGNTATLTISGTQAEDEADYYCSVRTWSMNLYVFGGGTKLTVLG
6.5e-05
